B1: CPEB3 Ribozyme (parent)
chain: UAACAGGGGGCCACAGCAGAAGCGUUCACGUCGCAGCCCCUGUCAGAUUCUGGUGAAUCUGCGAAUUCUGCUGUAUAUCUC

- Variants of: B1
- assayExplanation: self-cleavage, relative activity (ratio to wild type); higher = more cleavage; in vitro, sequencing
MET means recorded self-cleavage is 0.2 or above; NOT MET means it is below 0.2.

Query string: # bool: self-cleavage of UAACAGGGGGCCACAGCAGAAGCGUUCACGUCGCAGCCCCUGUCAGACUCUGGUGAAUCUGCGAAUUCUGCUGGAUAUCUC [U48C U74G] >= 0.2
Result string: MET

Query string: Please check the record UAACAGGGAGCCACAGCAGAAGCGUUCACGUCGCAGCCCUUGUCAGAUUCUGGUGAAUCUGCGAAUUCUGCUGUAUAUCUC [G9A C40U] and state if its self-cleavage is at or above 0.2.
Result string: NOT MET

Query string: Please tell me: is the variant UAACGGGGGGCUACAGCAGAAGCGUUCACGUCGCAGCCCCUGUCAGAUUCUGGUGAAUCUGCGAAUUCUGCUGUAUAUCUC [A5G C12U] at or over 0.2 in terms of self-cleavage?
Result string: MET

Query string: Quick check: does UAACAGGGGGCCACAGCAGAAGCGUUCACGUCGCAGCCCCUGCCAGAUUAUGGUGAAUCUGCGAAUUCUGCUGUAUAUCUC [U43C C50A] have self-cleavage greater than or equal to 0.2?
Result string: MET

Query string: Does the variant UAACAGGGGGCCACAGCAGAAGCGCUCACGGCGCAGCCCCUGUCAGAUUCUGGUGAAUCUGCGAAUUCUGCUGUAUAUCUC [U25C U31G] have recorded self-cleavage that is 0.2 or more?
Result string: MET

Query string: Can UAACAGGGGGACACAGCAGGAGCGUUCACGUCGCAGCCCCUGUCAGAUUCUGGUGAAUCUGCGAAUUCUGCUGUAUAUCUC [C11A A20G] be said to have self-cleavage at or above 0.2?
Result string: MET

Query string: Assess whether reported self-cleavage for UAACAGGGGGCCACAUCAGAAGCGUUCACGUCGCAGCCCCUGUCUGAUUCUGGUGAAUCUGCGAAUUCUGCUGUAUAUCUC [G16U A45U] sits at 0.2 or higher.
Result string: MET

Query string: Please tell me: is the variant UAACAGGGGACCACAGCAGAAGCGUUCACGUCGCAGCCCCUGUCAGAUCCUGGUGAAUCUGCGAAUUCUGCUGUAUAUCUC [G10A U49C] at or over 0.2 in terms of self-cleavage?
Result string: NOT MET

Query string: Textbook exercise: given the entry UAACUGGGGGCCACAGCAGAAGCGUUCACGUCGCAGCCCCUGUCAGAUUCUGGUGAAACUGCGAAUUCUGCUGUAUAUCUC [A5U U58A] , state whether its self-cleavage is greater than or equal to 0.2.
Result string: MET

Query string: Please indicate if the recorded self-cleavage for UAACAGGGGGCCACAGCAGAAGCGAUCACGUCGCAGCCCCUGUCAGAUUCUGGUGAAUCUGCGAAUUCUGCGGUAUAUCUC [U25A U72G] meets or exceeds 0.2.
Result string: NOT MET

Query string: # bool: self-cleavage of UAACAGGGGGCCACAGCAGAAGCGUUCACGUCGCAGCCCCUGCCAGAUUCUGGUGAAUCUGCGAAGUCUGCUGUAUAUCUC [U43C U66G] >= 0.2
Result string: MET

Query string: Evaluate UAGCAGGGGGCCACAGCAGAAGCGUUCACGUCGCAGCCCCUGUCAGAUUCUGGCGAAUCUGCGAAUUCUGCUGUAUAUCUC [A3G U54C] : self-cleavage at minimum 0.2?
Result string: MET

Query string: Identify whether the reported self-cleavage of the following variant is 0.2 or greater: UAACAGGGGGCCACAGCAGAAGCGUUCACGUCGCAGCCCCUGUCAGAUUCUGGUCAAUCUGCGAAUUCUGCUGUAUAUCAC [G55C U80A]
Result string: MET

Query string: Is self-cleavage for UAACAGGGGGCCACAGCAGAAGCGUUCACGUCGCAGCCCCUGACAGACUCUGGUGAAUCUGCGAAUUCUGCUGUAUAUCUC [U43A U48C] at or above 0.2?
Result string: MET

Query string: Is reported self-cleavage greater than or equal to 0.2 here: UAGCAGGGGGCCACAGCAGCAGCGUUCACGUCGCAGCCCCUGUCAGAUUCUGGUGAAUCUGCGAAUUCUGCUGUAUAUCUC [A3G A20C]
Result string: MET

Query string: Check the entry UAACAGGGGGCCACAGCAGAAGCGUUCACGUCGCAGCCCCUGUCAGGUUCUGGUGAAUCUGCGAAUUCUGCUGUAUGUCUC [A47G A77G] : does self-cleavage equal or exceed 0.2?
Result string: MET

Query string: Decide: self-cleavage of UAACAGGGGGCCACAGCAGAAGCGUUAACGUCGCAGCCCCUGUCAGAUUCUGGUGAAGCUGCGAAUUCUGCUGUAUAUCUC [C27A U58G] >= 0.2?
Result string: MET
